apparent Kd listing for selected sequences.
System: MS2 coat protein
Test method notes: apparent Kd, MS2 coat protein; higher = weaker binding; RNA-MaP array
Particulars: designed as: ON switch for flavin mononucleotide; no ligand
Recorded metric: apparent Kd (nM)

INSERT INTO results (monomer_sequence, units_symbol, measurement) VALUES
  ('AUAUUUUUGUAAUGACAUGAGGAUCACCCAUGUAUCAAUGUAAGAAGGAGGAAAUAAACACGAUCCUAGGAUAUUAGGUGAUUA', 'nM', 44.5),
  ('AGCAAGACCGAGUCCAAUAACAUGAGGAUCACCCAUGUGUUCGAGGAUAUUAGGACUGAUGGGACUAAGAAGGCGAUCCCUUGU', 'nM', 46.5),
  ('GAGGCUCAUAUGUAGGAUAUUCAAGGAGCUACAUGAGGAUCACCCAUGUUCGGACGCCAAUUUUUGAAGAAGGACAAGACAGUGUU', 'nM', 54.6),
  ('GCAUAUGCAUACAUGAGGAUCACCCAUGUGGAACUAAGGGCGAAGGAUAUGUGUUAAACUACGAGACAGAAGGUCGUGAGUAGA', 'nM', 19.9),
  ('AAGUACUUUGAGAAGGACCUCUCGAACAUGAGGAUCACCCAUGUCACGGAGUACCCGAUCGGCUGGUAGGAUAUCAUGGUACCG', 'nM', 9.89),
  ('GACGGACAUGAGGAUCACCCAUGUUCUGGCAGCGUAGGAUAUGAAGGGAUGAUUGUACGUUCAGAAGGACGACCUG', 'nM', 10.3),
  ('UUGUCACAUGAGGAUCACCCAUGUAAGAGAUUCCAAGGAUAUAUUAUCGGGUAAAAUGAAAUAGAAGGUGGUCAGA', 'nM', 90.3);

====

Tested on: MS2 coat protein
Test method notes: apparent Kd, MS2 coat protein; higher = weaker binding; RNA-MaP array; FMN 200 µM where present
Particulars: designed as: OFF switch for flavin mononucleotide; no ligand
Recorded metric: apparent Kd

INSERT INTO measurements (monomer_sequence, measurement) VALUES
  ('UAUAUAUAGUAAGGAUAUGUAAUUAUUUGAUAAACAGAAGGUACUGACAUGAGGAUCACCCAUGUUUUAGUGUGGGCAUGUAGA', '88.2 nM'),
  ('UAAAUUUACAAGAAGGCUAACAUGAGGAUCACCCAUGUUGUACAUGGAUAUAGAGGAUAUUGCUAAUAAUUAUUUAUCAUAAUU', '24.2 nM'),
  ('AAUAACAGAGGAUAUACUGUUUUAUGUGUUUGUUGUUUUGAACAUGAGGAUCACCCAUGUAGAAGGCUGAAUGA', '28.1 nM'),
  ('UGACGGAGCAGAGGAUAUUACAUGAGGAUCACCCAUGUAUGAACCAAUAGCUGGAAACAGCAAUGUAAGAAGGCUGCUCCGACA', '11.6 nM'),
  ('CUUUUGUGAGGAUAUUAGUAUUAAAUAAAUAAAAUUACUACUGAGAAGGCACAUGAGGAUCACCCAUGUUCCUC', '30.3 nM'),
  ('AGUGGUGGAGGAUAUACAUGAGGAUCACCCAUGUAAAUCACACAUGUGGUCAAAGCAUGUAGAAGGCCACUACA', '99.6 nM'),
  ('AAGUCACGAAUAAUAAUAAGAUCUACAUGAGGAUCACCCAUGUAGGAUAUGCAGUGGAAUACACUGCAGAAGGACAUACGUGAC', '14.1 nM'),
  ('AAUAGCUGAGGAUAUACAUGAGGAUCACCCAUGUAUUAGUAGGCUGGGAAUAAAUCGUGUAGAAGGCAGGAUGA', '16 nM'),
  ('GGUCACGUAGGAUAUACCUGGGCCUCUGAAUUCGGCAAUUUACAUGAGGAUCACCCAUGUAGAAGGACGAUGGC', '120 nM'),
  ('GCGUCAGAAUUAAUUGUGACAGGCAGAAGGCUAUAUCUUAUGUCAGACAUGAGGAUCACCCAUGUAGAGGAUAUGCAGUUACAC', '10.6 nM'),
  ('GAUAUGGGAGGAUAUGCAUAGAUAAAGAAACAUGUUCAACCACAUGAGGAUCACCCAUGUAGAAGGCCCAUAUC', '31.9 nM'),
  ('UAUAUAUAGUAAGGAUAUGUAUAUAUUAUAUAAACAGAAGGUACUGACAUGAGGAUCACCCAUGUUUUAGUGUGGGCAUGUAGA', '67.8 nM'),
  ('UAACAUGUCCGAGGAUAUCUGGAAACAUUUUCAAGAGAAGGCGGACAUGAGGAUCACCCAUGUCUCUCCUCAUCAACUACAAAU', '8.61 nM'),
  ('CUUCUUGGGCAAGGAUAUCCUGUGCGGUUCCGGCUCGUGUCUGUCACAUGAGGAUCACCCAUGUGGGAGAAGGUGCCUGCGGUC', '6.15 nM'),
  ('GUAGGGUCAGGAUAUACGGGCGGAGGGAUGUAUUGUAGUUGGUAGAAGGGACAUGAGGAUCACCCAUGUAAGAA', '29.7 nM'),
  ('GUCAGCUCGUGAGGAUAUACAACACUGCUUCGGCAGUGUAUUAAGAUCACAUGAGGAUCACCCAUGUAGAAGGCGCGAGCUGAU', '13.3 nM'),
  ('GGUGCGUUUGUGAGGAUAUGCUGGUCCUUGGUUCAGCAGAAGGCACAUGAGGAUCACCCAUGUGGUGUCGUACC', '240 nM'),
  ('GCCAGGCAUGUAGGAUAUCCAUUGCGUCGCGUUGGAGAAGGGCAACACACAUGAGGAUCACCCAUGUGGUCACCCAUGUAGUGU', '489 nM'),
  ('ACAUGAUCAGGAUAUACAUGAGGAUCACCCAUGUAUUUCAAAAAGGGACUUUCUUUAUGUAGAAGGGAUCUUGU', '15.8 nM'),
  ('CUCAUGUUAGGAUAUGCGCUCGACGUAGUGGUUGAGCUCUAGCAGAAGGAACAUGAGGAUCACCCAUGUUUGCA', '68.5 nM'),
  ('CGAUAGGACAGAGGAUAUACACAUGAGGAUCACCCAUGUGAUUACAACGCUUAAGCUCCAAACAUGUAGAAGGCUGUCCUAUCG', '21.7 nM'),
  ('UCCUGGCGAGGAUAUACAAAGUUUUUUACGUUUUGUUACGAACAUGAGGAUCACCCAUGUAGAAGGUGCUGCUG', '62.2 nM'),
  ('UUAUGUUUUGUAGGAUAUCAUUAGUUAUGUAUUAUAAUUGAAAUUUUGUUAUGAGAAGGACAUUUACAUGAGGAUCACCCAUGU', '13.9 nM'),
  ('ACGACGAAAAUCGAACGAUGUAGCAGAAGGACAUGAGGAUCACCCAUGUAAAAUGUAACAGCCAUGUAGGAUAUGCUACAUCGA', '40.9 nM'),
  ('CGUGACUCAGGAUAUCUAUUAUGUCACAUGAGGAUCACCCAUGUCCAGCGAAAGCUGGAGGGAGAAGGGAGUCACG', '97.9 nM'),
  ('CGGGUCUGAGGAUAUCCAUCUUCAUACAUGAGGAUCACCCAUGUUCACCCUUGGGUUCCCGGAGAAGGCAGUUUUC', '65 nM'),
  ('GCAUGUAAGCAGAAGGGCAGACAUUUUGAUGCUGCAGGAUAUGCAGAAUCAUAUCCACAUGAUAACAUGAGGAUCACCCAUGUA', '19.9 nM'),
  ('UCGCUGCGAGGAUAUACAUGAGGAUCACCCAUGUACGGGUCCGGGUCUUCGUCUAUUGGUAGAAGGCGCAGUGA', '54.2 nM'),
  ('CCUUAGUAAGGAUAUCAGCUUAUAGAGUUGGUAAUGAGAGCUGAGAAGGUACAUGAGGAUCACCCAUGUUAGUU', '21.1 nM');

====

apparent Kd listing for selected sequences.
Test system: MS2 coat protein
Test method notes: apparent Kd, MS2 coat protein; higher = weaker binding; RNA-MaP array
Particulars: designed as: OFF switch for flavin mononucleotide; no ligand
Recorded metric: apparent Kd (nM)

INSERT INTO results (monomer_sequence, recorded_metric, measurement) VALUES
  ('GGAUCACAUGAGGAUCACCCAUGUCAGGAUAUUAUGCCCUCCCAGUUGCUGAGACAUUUAAGAAGGGACGUGUA', 'apparent Kd', 13.5),
  ('CAUGUAGGCGAGAAGGCAACCGCGGUCCGGGAUUGAGGAUAUCGGCCAGGUGAUCCCGCCCAACAUGAGGAUCACCCAUGUAGC', 'apparent Kd', 339),
  ('AGGUAGCGAGACUUACAUGAGGAUCACCCAUGUACCACGCGGAAGGAUAUAACGGCAGGCUUUGCUUAGAAGGUCCGCGGUACU', 'apparent Kd', 26.9),
  ('ACAGACAAGUAGAAGGCAAUGAGGAGUGAAAAUUGAGGAUAUACCAGCAUGAGUGCCUACAUGAGGAUCACCCAUGUGUAGAUU', 'apparent Kd', 388),
  ('CUCGUGUGAGGAUAUUGAUCACAGGUCACGGUGCAGGAAUACAAGAAGGCACAUGAGGAUCACCCAUGUAACCG', 'apparent Kd', 15.7),
  ('CUUUGACGUGAGAAGGUGCAGGGAAUACACAAGCAAGGAUAUCAUGCACAUGAGGAUCACCCAUGUCCUGUAACGUUUGGUGAC', 'apparent Kd', 437),
  ('GAACUUCGAGUCAGGAUAUGUACAUCAAAACCAAAACAGAAGGGACAUGAGGAUCACCCAUGUGAGCUAGGAUU', 'apparent Kd', 14.3),
  ('CAAUGGGAACCAUAUGUUUACAUGAGGAUCACCCAUGUUACAUAGGAUAUCUCGGUUGGGUUCGUAGAGAAGGAUGUAGAGUAG', 'apparent Kd', 5.28),
  ('GAGCCACAUGAGGAUCACCCAUGUCAGGAUAUCGCAAGCGGGAAUAAGCCAACGUCUACGAGAAGGGACUAAUG', 'apparent Kd', 9.79),
  ('UCUCGUGUGAAGGAUAUAGAUAUUUAACAAAAGCUAGAAGGUCAAACAUGAGGAUCACCCAUGUUUACAUAGGA', 'apparent Kd', 8.77),
  ('ACUCAGUCAGGAUAUAGAGCCGCACGAGAUCGUGACUCGAUCUAGAAGGGACAUGAGGAUCACCCAUGUUAAGA', 'apparent Kd', 12.7),
  ('CAUUCUUUAGUAAGGAUAUCAACUUGUUUAUAUAAUGAGAAGGUACAUGAGGAUCACCCAUGUCUCACAUCGGU', 'apparent Kd', 8.72),
  ('CCCUCUUUAUAGGAUAUGUAGACCAUGGGACAAACAGAAGGAUAGACAUGAGGAUCACCCAUGUGGGAAAACUU', 'apparent Kd', 31.8),
  ('AUCAUGUUAGGAUAUACAAUGUAACGAUCAUUCUUGUAUGCGUAGAAGGAACAUGAGGAUCACCCAUGUGGAAG', 'apparent Kd', 43),
  ('ACAUGAGGAUCACCCAUGUUAUAGGGCAGGGAACGGAGCAUCUAGGAUAUUGUACACCGGCUACACAAGAAGGAGACCGAAGCU', 'apparent Kd', 15.7),
  ('AUCGAUAAGAAGAAGGUGUGACAUGAGGAUCACCCAUGUUAUUGAACAGCACAUGAUCACAGAUACAAGGAUAUUCUACGUAUG', 'apparent Kd', 24.4),
  ('UCCGGUGACCUAGGAUAUCGUUCAACUAACAUGAGGAUCACCCAUGUGGUCUGUUUUAUGCCUGUCGAGAAGGAGGUGGAUAAG', 'apparent Kd', 64.2),
  ('UCCCAGUAACAUGAGGAUCACCCAUGUUGGAGUGUGCCUGCUCAGGAUAUUCGCGGCAUAAAAGUGAAGAAGGGAGCUCAAACG', 'apparent Kd', 13.1),
  ('GUCAUUCAAGUGAGGAUAUCUGCGAUGCCGAAAGGAGAGAAGGCACAUGAGGAUCACCCAUGUGGUGUUUAUAU', 'apparent Kd', 34.5),
  ('GGUAUCGUAGGAUAUUAAUGUAGCCACAUGAGGAUCACCCAUGUAGUUCUAGUGGACCGUUAAGAAGGACGUGAUC', 'apparent Kd', 66.1),
  ('ACUGAUUAUGUGAGGAUAUCGCUUUCAGGCAGAAACGAGAAGGCACAUGAGGAUCACCCAUGUUACGUCCACUG', 'apparent Kd', 6.64),
  ('CAGGAUCCGAAGAAGGGCAUCGGCCACAGGGCUGCAGGAUAUUCAAUUCAUGCAACAUGAGGAUCACCCAUGUAAUGGGCCGUU', 'apparent Kd', 27.5),
  ('UCUUUUCAACAGAAGGAAUGCAGGCGAUAUGAUUGUUUCCGUCAGACAUGAGGAUCACCCAUGUAUUAGGAUAUGUGAAACAGU', 'apparent Kd', 6.2),
  ('UAGACCGAAGGAUAUACAUGAGGAUCACCCAUGUCAAGGACAUACCCACGAAAGGCACGUAGAAGGUCGGCAUA', 'apparent Kd', 18.2),
  ('UAGCGUUCCUCAGGAUAUCCUUAAGUGGACAUGAGGAUCACCCAUGUGUGAUUCUGGGUGUUAUGGGAGAAGGGAGGGUGAUGA', 'apparent Kd', 300),
  ('UAUAAUGAAGGAUAUACAUGAGGAUCACCCAUGUUAGACUCUCAGUCGACAGUAAUCCGUAGAAGGUCAUGCCA', 'apparent Kd', 12.3),
  ('CUUGUGUGAGGAUAUUAGACACAAUCCGACAGCGGGAUAGUUAAGAAGGCACAUGAGGAUCACCCAUGUUGAGU', 'apparent Kd', 44.2),
  ('GACGUGGUGAAGAAGGGCUGACGUAACCGGUGAGCAGGAUAUUCGACUCAUUAAUACAUGAGGAUCACCCAUGUUCGGUAGCGC', 'apparent Kd', 24.8),
  ('CACAUGAGGAUCACCCAUGUGUGGUGGGUGGUGCAACAUUGUAAGGAUAUAAUGGACGUCGGCCCUUAGAAGGUACAUUGUACG', 'apparent Kd', 139);
